Assay: Plasma pharmacokinetics in the phase I study
Assay type: in vivo, human
Details: human, plasma, oral, 650 mg/day, Part 1, Day 8 (multiple administration), 650 mg/day, n=5; read-out: Cmax Mean (SD)
RECORDED_METRIC: Cmax (ng/mL)
The reply should contain only the number, in ng/mL.

## Input Given CNC(=O)c1cc2c(Oc3ccc(NC(=S)NC(=O)Cc4ccccc4)cc3F)ccnc2cc1OC [TAS-115] , respond with its Cmax.
## Output 5040

###

Test: Plasma pharmacokinetics in the phase I study
Format: in vivo, human
Conditions: human, plasma, oral, 450 mg/day, Part 1, Day 8 (multiple administration), 450 mg/day, n=3; read-out: AUC0-24 Mean (SD)
RECORDED_METRIC: AUC(0-t) (ng·h/mL)
The reply should contain only the number, in ng·h/mL.

## Input Given CNC(=O)c1cc2c(Oc3ccc(NC(=S)NC(=O)Cc4ccccc4)cc3F)ccnc2cc1OC , respond with its AUC(0-t).
## Output 37000

###

Experiment: Plasma pharmacokinetics in the phase I study
Format: in vivo, human
Conditions: human, plasma, oral, 450 mg/day, Part 1, Day 1 (single administration), 450 mg/day, n=3; read-out: t1/2 Mean (SD) (converted)
RECORDED_METRIC: half-life (h)
The reply should contain only the number, in h.

## Input Given CNC(=O)c1cc2c(Oc3ccc(NC(=S)NC(=O)Cc4ccccc4)cc3F)ccnc2cc1OC , respond with its half-life.
## Output 12.6

###

Assay: Plasma pharmacokinetics in the phase I study
Format: in vivo, human
Settings: human, plasma, oral, 650 mg/day, Part 1, Day 8 (multiple administration), 650 mg/day, n=5; read-out: AUC0-24 Mean (SD)
RECORDED_METRIC: AUC(0-t)

## Input Given CNC(=O)c1cc2c(Oc3ccc(NC(=S)NC(=O)Cc4ccccc4)cc3F)ccnc2cc1OC , respond with its AUC(0-t).
## Output 54500 ng·h/mL

###

Experiment: Plasma pharmacokinetics in the phase I study
Type: in vivo, human
Conditions: human, plasma, oral, 650 mg/day, Part 2, Day 19 (multiple administration), 650 mg/day, n=6; read-out: tmax Median
RECORDED_METRIC: Tmax
Respond with a number, then the unit of measure.

## Input Given CNC(=O)c1cc2c(Oc3ccc(NC(=S)NC(=O)Cc4ccccc4)cc3F)ccnc2cc1OC [TAS-115] , respond with its Tmax.
## Output 1 h

###

Assay: Plasma pharmacokinetics in the phase I study
Type: in vivo, human
Details: human, plasma, oral, 200 mg/day, Part 1, Day 1 (single administration), 200 mg/day, n=3; read-out: tmax Median
RECORDED_METRIC: Tmax (h)
The reply should contain only the number, in h.

## Input Given CNC(=O)c1cc2c(Oc3ccc(NC(=S)NC(=O)Cc4ccccc4)cc3F)ccnc2cc1OC [TAS-115] , respond with its Tmax.
## Output 1

###

Assay: Plasma pharmacokinetics in the phase I study
Type: in vivo, human
Details: human, plasma, oral, 650 mg/day, Part 1, Day 1 (single administration), 650 mg/day, n=6; read-out: Cmax Mean (SD)
RECORDED_METRIC: Cmax (ng/mL)
The reply should contain only the number, in ng/mL.

## Input Given CNC(=O)c1cc2c(Oc3ccc(NC(=S)NC(=O)Cc4ccccc4)cc3F)ccnc2cc1OC , respond with its Cmax.
## Output 7700

###

Assay: Plasma pharmacokinetics in the phase I study
Type: in vivo, human
Conditions: human, plasma, oral, 800 mg/day, Part 1, Day 1 (single administration), 800 mg/day, n=6; read-out: t1/2 Mean (SD) (converted)
RECORDED_METRIC: half-life
Respond with a number, then the unit of measure.

## Input Given CNC(=O)c1cc2c(Oc3ccc(NC(=S)NC(=O)Cc4ccccc4)cc3F)ccnc2cc1OC [TAS-115] , respond with its half-life.
## Output 13.7 h

###

Assay: Plasma pharmacokinetics in the phase I study
Type: in vivo, human
Settings: human, plasma, oral, 300 mg/day, Part 1, Day 8 (multiple administration), 300 mg/day, n=2; read-out: tmax Median
RECORDED_METRIC: Tmax (h)
The reply should contain only the number, in h.

## Input Given CNC(=O)c1cc2c(Oc3ccc(NC(=S)NC(=O)Cc4ccccc4)cc3F)ccnc2cc1OC , respond with its Tmax.
## Output 1.5

###

Experiment: Plasma pharmacokinetics in the phase I study
Format: in vivo, human
Details: human, plasma, oral, 450 mg/day, Part 1, Day 1 (single administration), 450 mg/day, n=3; read-out: tmax Median
RECORDED_METRIC: Tmax (h)
The reply should contain only the number, in h.

## Input Given CNC(=O)c1cc2c(Oc3ccc(NC(=S)NC(=O)Cc4ccccc4)cc3F)ccnc2cc1OC [TAS-115] , respond with its Tmax.
## Output 1

###

Assay: Plasma pharmacokinetics in the phase I study
Assay type: in vivo, human
Conditions: human, plasma, oral, 800 mg/day, Part 1, Day 1 (single administration), 800 mg/day, n=6; read-out: tmax Median
RECORDED_METRIC: Tmax (h)
The reply should contain only the number, in h.

## Input Given CNC(=O)c1cc2c(Oc3ccc(NC(=S)NC(=O)Cc4ccccc4)cc3F)ccnc2cc1OC [TAS-115] , respond with its Tmax.
## Output 1

###

Test: Plasma pharmacokinetics in the phase I study
Type: in vivo, human
Settings: human, plasma, oral, 450 mg/day, Part 1, Day 1 (single administration), 450 mg/day, n=3; read-out: AUC0-24 Mean (SD)
RECORDED_METRIC: AUC(0-t) (ng·h/mL)
The reply should contain only the number, in ng·h/mL.

## Input Given CNC(=O)c1cc2c(Oc3ccc(NC(=S)NC(=O)Cc4ccccc4)cc3F)ccnc2cc1OC [TAS-115] , respond with its AUC(0-t).
## Output 28800

###

Assay: Plasma pharmacokinetics in the phase I study
Assay type: in vivo, human
Conditions: human, plasma, oral, 300 mg/day, Part 1, Day 1 (single administration), 300 mg/day, n=3; read-out: t1/2 Mean (SD) (converted)
RECORDED_METRIC: half-life (h)
The reply should contain only the number, in h.

## Input Given CNC(=O)c1cc2c(Oc3ccc(NC(=S)NC(=O)Cc4ccccc4)cc3F)ccnc2cc1OC [TAS-115] , respond with its half-life.
## Output 20.4

###

Assay: Plasma pharmacokinetics in the phase I study
Assay type: in vivo, human
Conditions: human, plasma, oral, 200 mg/day, Part 1, Day 8 (multiple administration), 200 mg/day, n=3; read-out: t1/2 Mean (SD) (converted)
RECORDED_METRIC: half-life (h)
The reply should contain only the number, in h.

## Input Given CNC(=O)c1cc2c(Oc3ccc(NC(=S)NC(=O)Cc4ccccc4)cc3F)ccnc2cc1OC , respond with its half-life.
## Output 26.6

###

Experiment: Plasma pharmacokinetics in the phase I study
Format: in vivo, human
Conditions: human, plasma, oral, 300 mg/day, Part 1, Day 8 (multiple administration), 300 mg/day, n=2; read-out: t1/2 Mean (SD) (converted)
RECORDED_METRIC: half-life (h)
The reply should contain only the number, in h.

## Input Given CNC(=O)c1cc2c(Oc3ccc(NC(=S)NC(=O)Cc4ccccc4)cc3F)ccnc2cc1OC , respond with its half-life.
## Output 15.9

###

Assay: Plasma pharmacokinetics in the phase I study
Type: in vivo, human
Details: human, plasma, oral, 650 mg/day, Part 2, Day 19 (multiple administration), 650 mg/day, n=6; read-out: AUC0-24 Mean (SD)
RECORDED_METRIC: AUC(0-t) (ng·h/mL)
The reply should contain only the number, in ng·h/mL.

## Input Given CNC(=O)c1cc2c(Oc3ccc(NC(=S)NC(=O)Cc4ccccc4)cc3F)ccnc2cc1OC , respond with its AUC(0-t).
## Output 56700

###

Assay: Plasma pharmacokinetics in the phase I study
Format: in vivo, human
Details: human, plasma, oral, 650 mg/day, Part 1, Day 8 (multiple administration), 650 mg/day, n=5; read-out: tmax Median
RECORDED_METRIC: Tmax (h)
The reply should contain only the number, in h.

## Input Given CNC(=O)c1cc2c(Oc3ccc(NC(=S)NC(=O)Cc4ccccc4)cc3F)ccnc2cc1OC , respond with its Tmax.
## Output 2

###

Assay: Plasma pharmacokinetics in the phase I study
Format: in vivo, human
Conditions: human, plasma, oral, 650 mg/day, Expansion part, Empty Stomach, 650 mg/day, n=6; read-out: tmax Median
RECORDED_METRIC: Tmax (h)
The reply should contain only the number, in h.

## Input Given CNC(=O)c1cc2c(Oc3ccc(NC(=S)NC(=O)Cc4ccccc4)cc3F)ccnc2cc1OC , respond with its Tmax.
## Output 2

###

Experiment: Plasma pharmacokinetics in the phase I study
Format: in vivo, human
Details: human, plasma, oral, 650 mg/day, Expansion part, Fed, 650 mg/day, n=6; read-out: Cmax Mean (SD)
RECORDED_METRIC: Cmax

## Input Given CNC(=O)c1cc2c(Oc3ccc(NC(=S)NC(=O)Cc4ccccc4)cc3F)ccnc2cc1OC [TAS-115] , respond with its Cmax.
## Output 3.91 µg/mL
